target: GLP-1R (Homo sapiens, UniProt P43220); construct: host or cells: GLP-1R CRE-bla CHO-K1 cells; experiment: EC20 GLP-1(9-36) PAM cAMP assay: dose response of compound in the presence of fixed concentration of GLP-1(9-36); format: cell-based; details: dose response of compound in presence of fixed concentration of GLP-1(9-36), GLP-1R CRE-bla CHO-K1 cells, read-out: EC20 GLP-1(9-36) PAM EC50
Sequence (P43220 24-463): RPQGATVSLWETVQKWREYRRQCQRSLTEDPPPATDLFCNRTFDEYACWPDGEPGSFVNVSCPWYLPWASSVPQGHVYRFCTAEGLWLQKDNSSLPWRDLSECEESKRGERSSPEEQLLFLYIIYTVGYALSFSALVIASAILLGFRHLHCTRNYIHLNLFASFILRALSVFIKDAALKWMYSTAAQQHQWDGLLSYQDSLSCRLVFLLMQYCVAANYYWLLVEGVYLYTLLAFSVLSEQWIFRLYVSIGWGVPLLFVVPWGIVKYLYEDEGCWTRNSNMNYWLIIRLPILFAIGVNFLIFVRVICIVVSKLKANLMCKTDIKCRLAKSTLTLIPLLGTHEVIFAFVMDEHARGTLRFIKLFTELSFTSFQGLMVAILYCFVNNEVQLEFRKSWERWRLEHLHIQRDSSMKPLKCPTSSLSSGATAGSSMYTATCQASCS
Sequence (P01275 100-127 partner limits assumed): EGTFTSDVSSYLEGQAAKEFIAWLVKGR
Observable: EC50

Record summary for CCCCCCCOc1ccc(-c2cnc(-c3ccc(CC(NC(=O)c4ccc(C(C)(C)C)s4)C(=O)N[C@@H](CC(C)C)C(=O)O)cc3)nc2)cc1 (stereo partly drawn) : reported EC50 = 800 to 2500 nM

Record summary for CCCCCCCOc1ccc(-c2cnc(-c3ccc(C[C@H](NC(=O)c4ccc(C(C)(C)C)cc4)C(=O)N[C@H](C(=O)O)[C@@H](C)O)cc3)nc2)cc1 : reported EC50 = < 800 nM

Record summary for C[C@@H](NC(=O)[C@H](Cc1ccc(-c2ncc(-c3ccc(OCc4ccccc4)nc3)cn2)cc1)NC(=O)c1ccc(C(C)(C)C)s1)C(=O)O : reported EC50 = 5000 to 10000 nM

Record summary for CCCCCCCOc1ccc(-c2cnc(-c3ccc(CC(NC(=O)c4ccc(C(C)(C)C)s4)C(=O)N[C@@H](CCCNC(=N)N)C(=O)O)cc3)nc2)cc1 (stereo partly drawn) : reported EC50 = 2500 to 5000 nM

Record summary for CCCCCCCOc1ccc2nc(-c3ccc(C[C@H](NC(=O)c4ccc(C(C)(C)C)cc4)C(=O)O)cc3)ccc2c1 : reported EC50 = 2500 to 5000 nM

Record summary for CCCCCCCOc1ccc(-c2cnc(-c3ccc(C[C@H](NC(=O)c4ccc(C(C)(C)C)s4)C(=O)N[C@@H](CC(=O)O)C(=O)N4CCOCC4)cc3)nc2)cc1 : reported EC50 = < 800 nM

* * *

biological target: GLP-1R (Homo sapiens); construct: host or cells: GLP-1R CRE-bla CHO-K1 cells; assay: EC20 GLP-1(9-36) PAM cAMP assay: dose response of compound in the presence of fixed concentration of GLP-1(9-36); format: cell-based; details: dose response of compound in presence of fixed concentration of GLP-1(9-36), GLP-1R CRE-bla CHO-K1 cells, read-out: EC20 GLP-1(9-36) PAM EC50
pEC50: −log10 of the molar value.
I'd appreciate it if you could supply pEC50 values for the items below.

Record summary for C[C@@H](NC(=O)[C@H](Cc1ccc(-c2ncc(-c3ccc(C(C)(C)C#N)cc3F)cn2)cc1)NC(=O)c1ccc(C(C)(C)C)s1)C(=O)O [Compound 1018] : reported pEC50 = 5.00 to 5.30

Record summary for CCCCCC(=O)c1ccc(-c2cnc(-c3ccc(C[C@H](NC(=O)c4ccc(C(C)(C)C)cc4)C(=O)NCCC(=O)O)cc3)nc2)cc1 [Compound 690] : reported pEC50 = 5.30 to 5.60

Record summary for CCCCCCCOc1ccc(-c2cnc(-c3ccc(C[C@H](NC(=O)c4ccc(C(C)(C)C)s4)C(=O)N[C@H](CN)C(=O)O)cc3)nc2)cc1 [Compound 392] : reported pEC50 = 5.30 to 5.60

Record summary for C[C@@H](NC(=O)[C@H](Cc1ccc(-c2ncc(-c3cccc(C(=O)Nc4cccc(F)c4)c3)cn2)cc1)NC(=O)c1ccc(C(C)(C)C)s1)C(=O)O [Compound 1032] : reported pEC50 = 5.60 to 6.10

Record summary for CCCCCCCOc1ccc(-c2cnc(-c3ccc(C[C@H](NC(=O)c4ccc(CC)s4)C(=O)NC(C(=O)O)C(O)c4ccccc4)cc3)nc2)cc1 (stereo partly drawn) [Compound 957] : reported pEC50 = 5.60 to 6.10

Record summary for C[C@@H](NC(=O)[C@H](Cc1ccc(-c2ncc(-c3ccc(C(=O)NCC4CCCCC4)cc3)cn2)cc1)NC(=O)c1ccc(C(C)(C)C)s1)C(=O)O [Compound 1043] : reported pEC50 = 5.30 to 5.60

Record summary for CCCCCCCOc1ccc(-c2cnc(-c3ccc(C[C@H](NC(=O)c4ccc(C(C)(C)C)cc4)C(=O)N4CC[C@@H](C(=O)O)C4)cc3)nc2)cc1 [Compound 588] : reported pEC50 = 5.60 to 6.10

Record summary for CCCCCCCOc1ccc(-c2cnc(-c3ccc(C[C@H](NC(=O)c4ccc(C(C)(C)C)s4)C(=O)NC4(C(=O)O)CC4)cc3)nc2)cc1 [Compound 604] : reported pEC50 = 5.60 to 6.10

Record summary for CCCCCCCOc1ccc(-c2cnc(-c3ccc(C[C@H](NC(=O)c4ccc(C(C)(C)C)s4)C(=O)N[C@@H](CC(=O)O)C(=O)N(C)CCN(C)C)cc3)nc2)cc1 [Compound 531] : reported pEC50 = 5.60 to 6.10

Record summary for CCCCCCCOc1ccc(-c2cnc(-c3ccc(C[C@H](NC(=O)c4ccc(C(C)C)s4)C(=O)NC(C(=O)O)C(O)c4ccccc4)cc3)nc2)cc1 (stereo partly drawn) [Compound 958] : reported pEC50 = 5.60 to 6.10

Record summary for CCCCCCCOc1ccc(-c2cnc(-c3ccc(C[C@H](NC(=O)c4ccc(C(C)(C)C)s4)C(=O)NCCCN(CC)CC)cc3)nc2)cc1 [Compound 970] : reported pEC50 = 5.30 to 5.60

Record summary for CCCCCCCOc1ccc(-c2cnc(-c3ccc(C[C@H](NC(=O)c4ccc(C(C)(C)CC)cc4)C(=O)N[C@H](C)C(=O)O)cc3)nc2)cc1 [Compound 834] : reported pEC50 = 5.60 to 6.10

Values were extracted from patent US10034886B2.
